Data origin, for the record: ChEMBL document CHEMBL6083263

Experiment: Clearance in Sprague-Dawley rat at 1 mg/kg, iv measured upto 24 hrs by LC/MS-MS analysis
Format: ADME, organism-based
Conditions: in vivo
MEASURED_PROPERTY: clearance (mL/min/kg)

{"STRUCTURE_AS_SMILES": "CC1(C)CC[C@@H](c2ccc(F)cc2[C@@H](C(=O)O)N2CC[C@@H](OCCCCc3ccc4c(n3)NCCC4)C2)OC1", "OBSERVED_MEASUREMENT": 30}

A. O=C(O)[C@H](c1cc(F)ccc1[C@@H]1CCC2(CC2)CO1)N1CC[C@@H](OCCCCc2ccc3c(n2)NCCC3)C1
B. O=C(O)[C@H](c1cc(F)ccc1[C@@H]1CCCO1)N1CC[C@@H](OCCCCc2ccc3c(n2)NCCC3)C1
Prompt line: Kindly compare A with B and tell me which has the lower clearance figure. State your choice using its label.
Response line: B

I. O=C(O)[C@H](c1cc(F)ccc1[C@@H]1CCCCO1)N1CC[C@@H](OCCCCc2ccc3c(n2)NCCC3)C1
II. CC1(C)CC[C@@H](c2ccccc2[C@@H](C(=O)O)N2CC[C@@H](OCCCCc3ccc4c(n3)NCCC4)C2)OC1
Prompt line: Which shows the larger clearance value: I or II ? To answer, give the label that identifies your chosen option.
Response line: II

---

Assay: Half-life in Sprague-Dawley rat at 1 mg/kg, iv measured upto 24 hrs by LC/MS-MS analysis
Format: ADME, organism-based
Details: in vivo
MEASURED_PROPERTY: half-life (h)

{"STRUCTURE_AS_SMILES": "CC1(C)CC[C@@H](c2ccc(F)cc2[C@@H](C(=O)O)N2CC[C@@H](OCCCCc3ccc4c(n3)NCCC4)C2)OC1", "MEASURED_PROPERTY": "half-life", "OBSERVED_MEASUREMENT": 1.2}
{"STRUCTURE_AS_SMILES": "CC1(C)CC[C@@H](c2ccccc2[C@@H](C(=O)O)N2CC[C@@H](OCCCCc3ccc4c(n3)NCCC4)C2)OC1", "MEASURED_PROPERTY": "half-life", "OBSERVED_MEASUREMENT": 1.2}
{"STRUCTURE_AS_SMILES": "O=C(O)[C@H](c1cc(F)ccc1[C@@H]1CCCCO1)N1CC[C@@H](OCCCCc2ccc3c(n2)NCCC3)C1", "MEASURED_PROPERTY": "half-life", "OBSERVED_MEASUREMENT": 1.5}
{"STRUCTURE_AS_SMILES": "O=C(O)[C@H](c1cc(F)ccc1[C@@H]1CCC2(CC2)CO1)N1CC[C@@H](OCCCCc2ccc3c(n2)NCCC3)C1", "MEASURED_PROPERTY": "half-life", "OBSERVED_MEASUREMENT": 1.9}
{"STRUCTURE_AS_SMILES": "O=C(O)[C@H](c1cc(F)ccc1[C@@H]1CCCO1)N1CC[C@@H](OCCCCc2ccc3c(n2)NCCC3)C1", "MEASURED_PROPERTY": "half-life", "OBSERVED_MEASUREMENT": 1.5}

---

Biological target: Integrin alpha-V/beta-6 (Homo sapiens, UniProt P06756+P18564)
Sequence (P06756 31-889 limits assumed): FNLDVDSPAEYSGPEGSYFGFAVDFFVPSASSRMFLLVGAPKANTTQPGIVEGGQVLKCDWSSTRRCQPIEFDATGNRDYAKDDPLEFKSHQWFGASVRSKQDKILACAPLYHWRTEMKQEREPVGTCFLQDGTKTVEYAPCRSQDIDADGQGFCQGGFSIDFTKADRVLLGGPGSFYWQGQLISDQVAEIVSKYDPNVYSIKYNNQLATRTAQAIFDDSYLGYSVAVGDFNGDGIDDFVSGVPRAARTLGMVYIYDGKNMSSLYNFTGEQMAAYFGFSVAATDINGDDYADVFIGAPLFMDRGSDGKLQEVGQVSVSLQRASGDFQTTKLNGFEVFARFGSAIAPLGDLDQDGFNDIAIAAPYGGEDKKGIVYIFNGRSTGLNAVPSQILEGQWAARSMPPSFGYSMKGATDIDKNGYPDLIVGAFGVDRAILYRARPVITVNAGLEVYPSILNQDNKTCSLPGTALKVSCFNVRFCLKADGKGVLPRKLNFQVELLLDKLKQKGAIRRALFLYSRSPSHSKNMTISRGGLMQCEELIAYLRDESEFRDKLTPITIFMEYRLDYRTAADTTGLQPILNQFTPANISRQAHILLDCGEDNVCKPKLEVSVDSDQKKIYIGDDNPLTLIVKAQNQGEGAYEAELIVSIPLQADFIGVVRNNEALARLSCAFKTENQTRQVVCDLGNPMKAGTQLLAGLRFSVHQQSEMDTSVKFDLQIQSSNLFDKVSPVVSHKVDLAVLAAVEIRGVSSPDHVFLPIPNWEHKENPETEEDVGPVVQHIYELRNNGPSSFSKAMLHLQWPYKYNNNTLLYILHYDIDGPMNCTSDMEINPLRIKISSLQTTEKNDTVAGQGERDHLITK
Sequence (P06756 891-1048 limits assumed): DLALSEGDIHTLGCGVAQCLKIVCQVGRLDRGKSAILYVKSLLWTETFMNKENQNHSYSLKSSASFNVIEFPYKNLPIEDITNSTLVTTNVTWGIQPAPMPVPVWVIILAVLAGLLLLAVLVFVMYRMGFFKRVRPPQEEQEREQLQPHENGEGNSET
Sequence (P18564 22-788 limits assumed): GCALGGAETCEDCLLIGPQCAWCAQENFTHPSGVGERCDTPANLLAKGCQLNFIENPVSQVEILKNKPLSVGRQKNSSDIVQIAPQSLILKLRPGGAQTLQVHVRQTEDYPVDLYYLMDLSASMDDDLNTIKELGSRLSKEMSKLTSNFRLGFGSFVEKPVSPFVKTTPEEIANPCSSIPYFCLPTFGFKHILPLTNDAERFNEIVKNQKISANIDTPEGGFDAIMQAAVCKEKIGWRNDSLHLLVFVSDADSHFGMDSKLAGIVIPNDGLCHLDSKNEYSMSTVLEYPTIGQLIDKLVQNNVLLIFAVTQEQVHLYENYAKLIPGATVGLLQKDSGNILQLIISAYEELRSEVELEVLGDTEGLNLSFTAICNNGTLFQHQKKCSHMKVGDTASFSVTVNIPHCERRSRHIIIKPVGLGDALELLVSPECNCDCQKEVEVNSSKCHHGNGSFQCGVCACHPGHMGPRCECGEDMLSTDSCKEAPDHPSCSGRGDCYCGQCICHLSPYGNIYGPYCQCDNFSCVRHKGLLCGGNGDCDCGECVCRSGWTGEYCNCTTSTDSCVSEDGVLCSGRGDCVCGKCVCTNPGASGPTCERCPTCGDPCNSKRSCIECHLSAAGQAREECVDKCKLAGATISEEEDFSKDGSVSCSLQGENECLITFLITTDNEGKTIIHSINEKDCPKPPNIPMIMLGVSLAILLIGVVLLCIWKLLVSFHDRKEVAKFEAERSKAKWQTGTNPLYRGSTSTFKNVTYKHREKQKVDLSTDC
Assay: Inhibition of Integrin alphaVbeta6 (unknown origin) mediated TGF-beta1 activation expressed in primary epithelial cells cocultured with idiopathic pulmonary fibroblast cells assessed as downregulation of COL1A1 mRNA expression measured after 72 hrs by qPCR assay
Type: cell-based, Epithelial cell
MEASURED_PROPERTY: pIC50
Recall that pIC50 is obtained by taking minus log10 of the concentration measured in molar.

Prompt line: What measured pIC50 goes with O=C(O)[C@H](c1cc(F)ccc1[C@@H]1CCC2(CC2)CO1)N1CC[C@@H](OCCCCc2ccc3c(n2)NCCC3)C1 ?
Response line: 8.74

---

Target: Integrin alpha-V/beta-8 (Homo sapiens, UniProt P06756+P26012)
Sequence (P06756 31-889 limits assumed): as the sequence (P06756 31-889 limits assumed) above
Sequence (P06756 891-1048 limits assumed): as the sequence (P06756 891-1048 limits assumed) above
Sequence (P26012 43-769 limits assumed): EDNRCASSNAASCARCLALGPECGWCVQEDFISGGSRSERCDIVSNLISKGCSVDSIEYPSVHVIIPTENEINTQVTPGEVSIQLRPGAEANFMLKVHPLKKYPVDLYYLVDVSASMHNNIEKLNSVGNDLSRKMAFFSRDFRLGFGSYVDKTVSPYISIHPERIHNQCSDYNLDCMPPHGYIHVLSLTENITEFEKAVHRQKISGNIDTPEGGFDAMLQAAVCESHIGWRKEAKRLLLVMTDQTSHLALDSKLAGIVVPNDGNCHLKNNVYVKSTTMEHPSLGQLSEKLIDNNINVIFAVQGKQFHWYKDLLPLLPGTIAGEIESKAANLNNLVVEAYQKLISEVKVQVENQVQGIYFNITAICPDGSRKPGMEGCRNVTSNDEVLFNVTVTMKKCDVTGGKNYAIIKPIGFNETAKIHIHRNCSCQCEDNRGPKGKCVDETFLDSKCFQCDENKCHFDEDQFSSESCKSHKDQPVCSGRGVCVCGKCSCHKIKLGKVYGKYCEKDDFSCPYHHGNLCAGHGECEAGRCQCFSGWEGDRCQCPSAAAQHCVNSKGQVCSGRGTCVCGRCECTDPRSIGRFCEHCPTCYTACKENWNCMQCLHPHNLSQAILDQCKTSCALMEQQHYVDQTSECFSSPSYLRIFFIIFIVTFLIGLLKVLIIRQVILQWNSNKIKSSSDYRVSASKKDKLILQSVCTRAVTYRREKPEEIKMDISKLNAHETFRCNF
Test: Displacement of fluorescein labeled GRGDLGRL from human Integrin alphaVbeta8 preincubated for 15 mins followed by fluorescein labeled GRGDLGRL addition and measured after 1 hr by fluorescence polarization assay
pIC50: −log10 of the molar value.
MEASURED_PROPERTY: pIC50

{"STRUCTURE_AS_SMILES": "O=C(O)[C@H](c1cc(F)ccc1[C@@H]1CCCO1)N1CC[C@@H](OCCCCc2ccc3c(n2)NCCC3)C1", "MEASURED_PROPERTY": "pIC50", "OBSERVED_MEASUREMENT": 6.87}
{"STRUCTURE_AS_SMILES": "O=C(O)[C@H](c1ccccc1C1CC1)N1CC[C@@H](OCCCc2ccc3c(n2)NCCC3)C1", "MEASURED_PROPERTY": "pIC50", "OBSERVED_MEASUREMENT": 6.85}
{"STRUCTURE_AS_SMILES": "O=C(O)[C@H](c1cc(F)ccc1C1CCOCC1)N1CC[C@@H](OCCCCc2ccc3c(n2)NCCC3)C1", "MEASURED_PROPERTY": "pIC50", "OBSERVED_MEASUREMENT": 7.00}
{"STRUCTURE_AS_SMILES": "O=C(O)[C@H](c1cc(F)ccc1[C@@H]1CCC2(CC2)CO1)N1CC[C@@H](OCCCCc2ccc3c(n2)NCCC3)C1", "MEASURED_PROPERTY": "pIC50", "OBSERVED_MEASUREMENT": 6.48}
{"STRUCTURE_AS_SMILES": "O=C(NCCCc1ccc2c(n1)NCCC2)[C@@H]1CCN([C@H](C(=O)O)c2ccccc2)C1", "MEASURED_PROPERTY": "pIC50", "OBSERVED_MEASUREMENT": 7.11}
{"STRUCTURE_AS_SMILES": "O=C(O)CN1CCC(C(=O)NCCCc2ccc3c(n2)NCCC3)CC1", "MEASURED_PROPERTY": "pIC50", "OBSERVED_MEASUREMENT": 6.43}

A. O=C(O)[C@H](c1ccccc1C1CC1)N1CC[C@@H](OCCCCCc2ccc3c(n2)NCCC3)C1
B. O=C(O)[C@H](c1cc(F)ccc1C1CC1)N1CC[C@@H](OCCCCc2ccc3c(n2)NCCC3)C1
Prompt line: Return label of the item with the larger pIC50. Candidates: A , B . Answer = label.
Response line: A
(A: 7.77, B: 7.42)

---

Molecular target: Integrin alpha-V/beta-8 (Homo sapiens, UniProt P06756+P26012)
Assay: Displacement of fluorescein labeled GRGDLGRL from human Integrin alphaVbeta8 preincubated for 15 mins followed by fluorescein labeled GRGDLGRL addition and measured after 1 hr by fluorescence polarization assay
Format: protein-complex assay
MEASURED_PROPERTY: IC50 (nM)

Example cases with answers are listed next.
{"STRUCTURE_AS_SMILES": "O=C(O)[C@H](c1ccccc1C1CC1)N1C[C@@H](F)[C@@H](OCCCCc2ccc3c(n2)NCCC3)C1", "STUDY_TARGET": "Integrin alpha-V/beta-8 (Homo sapiens, UniProt P06756+P26012)", "IC50, nM": 140}
{"STRUCTURE_AS_SMILES": "O=C(O)[C@H](c1ccccc1C1CC1)N1CC[C@@H](n2cc(CCc3ccc4c(n3)NCCC4)cn2)C1", "STUDY_TARGET": "Integrin alpha-V/beta-8 (Homo sapiens, UniProt P06756+P26012)", "IC50, nM": 100}
{"STRUCTURE_AS_SMILES": "O=C(O)[C@H](c1cc(F)ccc1[C@H]1CCCO1)N1CC[C@@H](OCCCCc2ccc3c(n2)NCCC3)C1", "STUDY_TARGET": "Integrin alpha-V/beta-8 (Homo sapiens, UniProt P06756+P26012)", "IC50, nM": 155}
{"STRUCTURE_AS_SMILES": "O=C(O)[C@H](c1ccccc1)N1CC[C@@H](OCCCCc2ccc3c(n2)NCCC3)C1", "STUDY_TARGET": "Integrin alpha-V/beta-8 (Homo sapiens, UniProt P06756+P26012)", "IC50, nM": 1100}
{"STRUCTURE_AS_SMILES": "CC1(C)CCO[C@H](c2ccccc2[C@@H](C(=O)O)N2CC[C@@H](OCCCCc3ccc4c(n3)NCCC4)C2)C1", "STUDY_TARGET": "Integrin alpha-V/beta-8 (Homo sapiens, UniProt P06756+P26012)", "IC50, nM": 410}

1. O=C(O)[C@H](c1cc(F)ccc1[C@H]1CCOC1)N1CC[C@@H](OCCCCc2ccc3c(n2)NCCC3)C1
2. O=C(O)[C@H](c1ccc(C2CC2)cc1)N1CC[C@@H](OCCCCc2ccc3c(n2)NCCC3)C1
Prompt line: Input pair: 1 , 2 . Output: entry with lower IC50. Give the chosen item's label as your response.
Response line: 1
(1: 190 nM, 2: 300 nM)

---

Target: Integrin alpha-V/beta-8 (Homo sapiens, UniProt P06756+P26012)
Assay: Displacement of fluorescein labeled GRGDLGRL from human Integrin alphaVbeta8 preincubated for 15 mins followed by fluorescein labeled GRGDLGRL addition and measured after 1 hr by fluorescence polarization assay
MEASURED_PROPERTY: IC50 (nM)

P. O=C(O)[C@H](c1cc(F)ccc1[C@H]1CCCCO1)N1CC[C@@H](OCCCCc2ccc3c(n2)NCCC3)C1
Q. O=C(O)[C@H](c1ccccc1C1CC1)N1CC[C@@H](OCCCCc2ccc3c(n2)NCCC3)C1
Prompt line: Endpoint returns the identifier whose IC50 is numerically larger, either P or Q . Write down the label attached to your selection.
Response line: P
(P: 130 nM, Q: 55 nM)

I. O=C(O)[C@H](c1ccccc1C1CC1)N1CC[C@@H](Oc2ccc(Cc3ccc4c(n3)NCCC4)cc2)C1
II. O=C(O)[C@H](c1ccccc1C1CCCOC1)N1CC[C@@H](OCCCCc2ccc3c(n2)NCCC3)C1 (stereo not given in full)
Prompt line: I'm curious, which of these has a smaller IC50 number: I or II ? Answer = label.
Response line: I
